test: Lipophilicity, log P of the compound; assay type: physicochemical; settings: octanol/water
recorded.endpoint: logP
One number for each entry.

# logP lookup, item `COc1nc(OCc2cccc(-c3ccccc3)c2C)ccc1CNCCNC(C)=O` 4.4
